Where these numbers come from: PubChem BioAssay

Assay: compound effects on lung adenocarcinoma cell viability – A549, calcein-AM fluorescence, 48 h, basal, profiling panel (AID 1162); note: test concentration not given here
Settings: higher = more signal
Parameter: z-score. Scope: all listed entries.

Example cases with answers are listed next.
compound | z-score
COC(=O)[C@@]1(Cc2ccc(F)cc2)[C@H]2c3cc(C(=O)N4CCCC4)n(CCc4c[nH]c5ccccc45)c3C[C@H]2CN1C(=O)c1ccccc1 | -1.41
C=CC[C@@]1(C(=O)NCCCOC)N=C(c2ccc(OCCCO)cc2)O[C@@H]1c1ccccc1N=[N+]=[N-] | 1.42
COCCOC(=O)N1C(=O)[C@@]2(c3ccccc31)[C@H](c1ccc(O)cc1)N1[C@H](c3ccccc3)[C@H](c3ccccc3)OC(=O)[C@H]1[C@@H]2C(=O)N1CCN(c2ncccn2)CC1 | -0.402
CCCNC(=O)[C@@]1(C)c2ccccc2C(=O)N(c2ccc(C)cn2)[C@H]1c1ccc(CO)cc1 | 0.666
CCCCCN1CC=CC23O[C@@H]4C=CCCOC(=O)C4[C@H]2C(=O)N(CCCCCCO)[C@@H]3C1=O (stereo partly drawn) | -0.182
CC(C)NC(=O)[C@@]1(C)c2ccccc2C(=O)N(Cc2ccc(OC(F)(F)F)cc2)[C@H]1c1ccc(CO)cc1 | -0.692

Task: Requested read-out: z-score. Entry: COc1cc2c(cc1O)C(c1cccs1)N(Cc1cc3c(cc1Br)OCO3)CC2 (stereo not drawn)
Result: -1.67

Task: // query: `CCCCC(=C=CC[C@H](O)c1ccc(OCCO)cc1)CCO`
Result: -0.113

----------
A collection of compounds and their measured z-score
Test: optical density shifts of acrAB sulA E. coli – strain DRC41, OD650, 48 h, E. coli filamentation inducer project, primary screen (AID 1152);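 note: E. coli MC1000 strain DRC41 lacking acrAB efflux pump and sulA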
Conditions: higher = more signal, called active from +8 up or from −8 down
Write the number on its own, no unit after it.

compound | z-score
COc1cc2c(cc1O)C(c1cccs1)N(Cc1cc3c(cc1Br)OCO3)CC2 (stereo unspecified) | -1.8
CS(=O)(=O)CCOC(=O)C1=CC(CCCO)=CC(c2ccc(CN3CCCC3)cc2)N(Cc2sc3ccccc3c2Cl)C=C1C(=O)OCCS(C)(=O)=O (stereo unspecified) | -0.794
C=C[C@@H](CO)N(Cc1ccc(OC)cc1)S(=O)(=O)c1ccc(Br)cc1 | 1.77

Let us examine a further case.
Task: Which z-score value belongs to `C=CC[C@H](OC(=O)Nc1ccc(SC)cc1)c1ccc(O)c2ccccc12` ?
Result: -1.2

----------
System: Noggin (protein binding on small-molecule microarray)
Experiment: small molecules binding Noggin protein – biochemical, 635/667 nm fluorescence, primary screen (AID 1095);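 note: score merges 667 nm feature fluorescence with signal to noise over triplicate slides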
Settings: 635 nm fluorescence, higher = more signal
composite z-score of -0.1 or higher: 1. Under -0.1: -1.

Task: Quick check, composite z-score >= -0.1? `CC(C)(C)OC(=O)COc1cccc(C(=O)CCN2CCOCC2)c1`
Result: 1

Task: Same question for `COC(=O)c1c(CC[C@@H](CO)NC(=O)N[C@@H](C)Cn2cc(-c3ccccn3)nn2)oc(C(C)=O)c1C(=O)OC` please.
Result: 1

Task: Another compound: `CC1=C2[C@@H](CCc3ccccc3)OB(O)C[C@@H]2[C@@H]2C(=O)N(C)C(=O)[C@@H]2C1`
Result: 1

----------
Target: Homeobox protein Hox-A13 (Mus musculus) (UniProt Q62424)
Sequence (Q62424 whole entry, looked up): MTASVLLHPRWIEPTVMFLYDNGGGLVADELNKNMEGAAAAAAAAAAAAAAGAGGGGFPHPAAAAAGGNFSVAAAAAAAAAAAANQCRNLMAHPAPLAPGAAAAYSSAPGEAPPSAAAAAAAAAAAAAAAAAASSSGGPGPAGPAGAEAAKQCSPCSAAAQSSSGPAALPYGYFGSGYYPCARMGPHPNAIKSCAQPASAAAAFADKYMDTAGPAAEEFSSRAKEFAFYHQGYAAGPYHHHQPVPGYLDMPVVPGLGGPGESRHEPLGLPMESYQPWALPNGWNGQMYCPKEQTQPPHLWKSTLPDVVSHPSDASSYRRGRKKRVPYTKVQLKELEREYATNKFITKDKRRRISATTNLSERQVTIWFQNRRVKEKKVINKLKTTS
Experiment: disruptors of Hoxa13 oligonucleotide interaction – biochemical, fluorescence polarization, labeled oligonucleotide, primary screen (AID 1185)
Conditions: Hoxa13:DNA binding, 15 min, higher = more signal, called active from +8 up or from −8 down
readout-name: z-score
Just the number, please, no unit attached.

Some solved entries appear below for comparison.
molecule | z-score
Cc1ccccc1C(O)C1C=CC2C(=O)NC(=O)C2N1Nc1ccccn1 (stereo not drawn) | -1.11
Cc1ccc(S[C@]2(C(=O)NCCN3CCOCC3)CC(=O)N(Cc3ccccc3Cl)[C@@H]2c2ccc(CO)cc2I)cc1 | -2.18
CCCNC(=O)[C@@]1(Sc2ccc(C)cc2)CC(=O)N(C2Cc3ccccc3C2)[C@@H]1c1ccc(CO)cc1I | -2.68
C=CCNC(=O)[C@@H]1[C@H]2C(=O)O[C@H](c3ccccc3)[C@H](c3ccccc3)N2[C@H](c2ccccc2OCCO)[C@@]12C(=O)N(C(=O)OCCOC)c1ccc(C#CC3(O)CCCCCC3)cc12 | -2.56
C=C(C(=O)CC[C@H](OC(=O)c1ccccc1-c1ccccc1C(=O)O)c1cccc(OCCO)c1)C(C)C | -5.93

Task: What value of z-score has been reported for the following molecule? `COCCCNC(=O)[C@@H]1c2ccccc2C(=O)N(C(C)C)[C@H]1c1ccc(CO)cc1`
Result: -1.03

Task: Now try `Cc1ccc(S[C@]2(C(=O)NC(C)C)CC(=O)N(Cc3cc(C(F)(F)F)cc(C(F)(F)F)c3)[C@@H]2c2ccc(CO)cc2)cc1` .
Result: -2.62

Task: Follow-up entry: `O=C(O)[C@@H]1[C@@H]2C(=O)N(c3ccccc3)C(=O)[C@@H]2C[C@@H]1Sc1ccccc1`
Result: -2.65

----------
Target: Follistatin-related protein 3 (Homo sapiens) (UniProt O95633)
Sequence (O95633 whole entry, looked up): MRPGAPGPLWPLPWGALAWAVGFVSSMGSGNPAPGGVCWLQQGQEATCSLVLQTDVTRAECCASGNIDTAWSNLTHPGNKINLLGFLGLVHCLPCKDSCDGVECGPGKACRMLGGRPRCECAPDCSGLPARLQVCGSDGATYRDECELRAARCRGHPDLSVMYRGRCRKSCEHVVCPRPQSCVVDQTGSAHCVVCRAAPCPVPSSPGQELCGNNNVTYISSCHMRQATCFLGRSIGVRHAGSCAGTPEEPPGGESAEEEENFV
Experiment: compounds binding follistatin-related protein 3 – biochemical, small-molecule microarray, 635 nm fluorescence, primary screen (AID 1105);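 note: score merges emission near 667 nm and signal to noise per printed spot across three slides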
Conditions: FSTL3 binding, higher = more signal
readout-name: composite z-score
// keep it numeric: no unit symbol after the value

Use these answered entries as a reference point.
compound | composite z-score
COCCOC(=O)N1C(=O)[C@@]2(c3cc(C#CC4(O)CCCCCC4)ccc31)[C@H](C(=O)N1CCc3cc(OC)c(OC)cc3C1)[C@H]1C(=O)O[C@H](c3ccccc3)[C@H](c3ccccc3)N1[C@@H]2c1ccc(OCCO)cc1 | 1.04
COc1ccc(C#Cc2ccc3c(c2)[C@]2(C(=O)N3)[C@H](C(=O)O)[C@H]3C(=O)O[C@H](c4ccccc4)[C@H](c4ccccc4)N3[C@@H]2c2ccc(O)cc2)cc1 | -0.382
COC(=O)C1=CC(CCCO)=CC(c2ccc(CN3CCCC3)cc2)N(Cc2cccc(OC(F)(F)F)c2)C=C1C(=O)OC (stereo not drawn) | 0.637
C=CCC(OC(C)=O)[C@@H]1[C@@H](N(Cc2ccc(-c3cccc(C(F)(F)F)c3)o2)C(=O)c2ccc(-c3ccccc3)cc2)c2cc(OCCCO)ccc2N1C(=O)Cc1ccc2ccccc2c1 (stereo partly drawn) | -0.116
CS(=O)(=O)CCOC(=O)C1=CC(CCCO)=CC(c2ccc(CN3CCCC3)cc2)N(Cc2sc3ccccc3c2Cl)C=C1C(=O)OCCS(C)(=O)=O (stereo not drawn) | 1
COC(=O)[C@@H]1N=C(c2ccc(OCCCO)cc2)O[C@@H]1c1ccccc1 | -1.22

Task: I'd like to know its composite z-score. The compound in question is CC(C)C(O)C1C=CC2C(=O)N(c3ccccc3)C(=O)C2N1Nc1ccccc1 (stereo not drawn)
Result: 1.41

Task: Consider next the compound CC(C)c1ccc(NN2C(C(O)c3ccc(C#N)cc3)C=CC3C(=O)N(c4ccccc4)C(=O)C32)cc1 (stereo not drawn) in the same way.
Result: 1.24

Task: Then this compound: `CCCC[C@@H](O)C1=C(COc2ccccc2)C[C@H]2C(=O)N(Cc3ccccc3)C(=O)[C@H]2[C@H]1CO`
Result: 0.78

Task: Try `O=C(NCCN1CCOCC1)[C@@H]1c2ccccc2C(=O)N(Cc2ccccc2Cl)[C@H]1c1ccc(CO)cc1` next.
Result: 0.0801

Task: Repeat for the following compound: `CC[C@@H]1C=C(C(=O)O)[C@H](c2ccccc2)N1S(=O)(=O)c1ccc(C)cc1`
Result: 0.0194

Task: Next compound: `CO[C@H]1O[C@H](CO)[C@@H](OC(=O)CCc2ccccc2)[C@@H]2OC(=O)[C@@H](Cc3ccccc3)C/C=C/C[C@H](Cc3ccccc3)C(=O)O[C@@H]12`
Result: 1.11

----------
Biological target: NADPH oxidase 5 (Homo sapiens)
Assay: compounds shifting NOX5 Amplex Red fluorescence – cell-based, HEK293-NOX5, NOX inhibitor project, primary screen (AID 1161)
Settings: HEK293-NOX5, ionomycin, 45 min, higher = more signal
# cutoff 0.1 applies to z-score; >= gives class 1, < gives class 0

molecule | assigned-class
O=C1C[C@]2(c3ccc([N+](=O)[O-])cc3)C(=O)N(C3CC3)c3cc(CO)ccc3[C@H]2N1CC12CC3CC(CC(C3)C1)C2 | class 0
CCCCCCCCCCC(O)C1C=CC2C(=O)N(c3ccccc3)C(=O)C2N1Nc1ccc(C#N)cc1 (stereo not drawn) | class 0
CCCCCN1CC=CC23O[C@@H]4/C=C\CCCOC(=O)C4[C@H]2C(=O)N(C(C)CO)[C@@H]3C1=O (stereo partly drawn) | class 1
COC(=O)[C@]1(CCS(=O)(=O)c2ccccc2)N=C(c2ccc(OCCCO)cc2)O[C@@H]1c1ccccc1N=[N+]=[N-] | class 0

Task: # bool: z-score of `CCOC(=O)C1=C[C@@H](c2ccccc2)N(S(=O)(=O)c2ccc(C)cc2)[C@H]1c1ccc(OC)cc1` >= 0.1
Result: class 0

Task: Next molecule: `C=C[C@H]1C(C(=O)OCC)=CC[C@@H](c2ccccc2)N1S(=O)(=O)c1ccc(C)cc1`
Result: class 1

Task: Now the molecule `O=C(O)[C@@H]1C[C@@H]2C(=O)N3CCC[C@H]3C(=O)N2[C@@H]1c1ccc(O)cc1`
Result: class 0

Task: // next record `CC(C)NC(=O)[C@@]1(C)c2ccccc2C(=O)N(Cc2ccc(OC(F)(F)F)cc2)[C@H]1c1ccc(CO)cc1`
Result: class 1
